# Test system: 966289-007-R4-J1-PDC complex spheroid viability;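 further: spheroids exposed to agents for one week before readout; percent viability relative to DMSO vehicle control wells as 100%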
# protocol: Anticancer human tumor 966289-007-R4-J1-PDC patient-derived pancreatic adenocarcinoma cell line growth inhibition [RAS]
# test-settings: second compound 0.03 µM; first compound 1 µM; active compounds read low
# From the text: RAS pathway inhibitors in Combinations in Complex Spheroids A high-throughput screen of multi-cell type tumor spheroids was designed to identify active combinations of RAS pathway inhibitors and targeted small molecules. Complex spheroids include a stromal component modeled by human endothelial cells (HUVEC) and fibroblasts modeled by human mesenchymal stem cells (MSCs). […] Compounds. […] If the clinical Cmax for an agent had not been determined, the highest concentration tested was 10 microM. […]
I'd appreciate it if you could supply viability, T/C values for the items below.
# unit: % | format: bare number

Problem: Kindly state the measured viability, T/C obtained for C[C@@H](NC(=O)c1ncnc(N)c1Cl)c1ncc(C(=O)Nc2cc(C(F)(F)F)c(Cl)cn2)s1 + CCn1c(-c2cccnc2C(C)OC)c2c3cc(ccc31)N1CCOC(CC(NC(=O)C(C(C)C)N(C)C(=O)C3(F)CCN(C(=O)C#CC(C)(C)N(C)C)CC3)C(=O)N3CCCC(N3)C(=O)OCC(C)(C)C2)C1 with 966289-007-R4-J1-PDC complex spheroid viability.
Result: 73.5

Problem: Proceed to CC1(O)CCCC1n1c(=O)c(C(F)F)cc2cnc(NC3CCN(S(C)(=O)=O)CC3)nc21 (centres undefined) + CCn1c(-c2cccnc2C(C)OC)c2c3cc(ccc31)N1CCOC(CC(NC(=O)C(C(C)C)N(C)C(=O)C3(F)CCN(C(=O)C#CC(C)(C)N(C)C)CC3)C(=O)N3CCCC(N3)C(=O)OCC(C)(C)C2)C1
Result: 21.4

Problem: Proceed to CC(C)NCC(C(=O)N1CCN(c2ncnc3c2C(C)CC3O)CC1)c1ccc(Cl)cc1 (centres undefined) + CCn1c(-c2cccnc2C(C)OC)c2c3cc(ccc31)N1CCOC(CC(NC(=O)C(C(C)C)N(C)C(=O)C3(F)CCN(C(=O)C#CC(C)(C)N(C)C)CC3)C(=O)N3CCCC(N3)C(=O)OCC(C)(C)C2)C1
Result: 92.4

Problem: Proceed to NC1c2ccccc2OC12CCN(c1cnc3c(N4CCCc5ncccc54)n[nH]c3n1)CC2 (centres undefined) + CCn1c(-c2cccnc2C(C)OC)c2c3cc(ccc31)N1CCOC(CC(NC(=O)C(C(C)C)N(C)C(=O)C3(F)CCN(C(=O)C#CC(C)(C)N(C)C)CC3)C(=O)N3CCCC(N3)C(=O)OCC(C)(C)C2)C1
Result: 74.3
